Origin of values: paper PMC11091220

protocolNotes: Mouse hepatocyte intrinsic clearance
Assay type: in vitro ADME
measurementSetup: male, CD-1, mouse, hepatocytes, pH 7.4; read-out: muHeps (mouse hepatocytes) clearance
Experimental: Livers from CD-1 male mice weighing 30-35 g were digested and perfused using D-Hanks solution containing EDTA or collagenase. Once digested the liver was transferred to a petri dish and the hepatocytes were prepared by washing and centrifuging with a Leibovitz-15 medium containing 50% isotonic percoll. […] Cell viability was determined using a Cellometer Vision and >80% cell viability was required to proceed with the compound incubation. […] Samples were analysed by LC-MS/MS[17].
reportedEndpoint: hepatocyte CLint at 1 µM (µL/min/1e6 cells)
Field format: number, assumed µL/min/1e6 cells, no unit text.

Below: 2 molecules and their reported hepatocyte CLint at 1 µM.
Cc1ncsc1-c1ccc(CNC(=O)[C@@H]2C[C@@H](O)CN2C(=O)[C@@H](NC(=O)COCCOCCOCCOCCOc2cc(F)c([C@@H]3c4[nH]c5ccccc5c4C[C@@H](C)N3CC(C)(C)F)c(F)c2)C(C)(C)C)cc1 [Compound 4]: 41
Cc1ncsc1-c1ccc(CNC(=O)[C@@H]2C[C@@H](O)CN2C(=O)[C@@H](NC(=O)COCCN2CCN(CCOc3cc(F)c([C@@H]4c5[nH]c6ccccc6c5C[C@@H](C)N4CC(C)(C)F)c(F)c3)CC2)C(C)(C)C)cc1 [Compound 6]: 11

Identify hepatocyte CLint at 1 µM associated with the molecule Cc1ncsc1-c1ccc(CNC(=O)[C@@H]2C[C@@H](O)CN2C(=O)[C@@H](NC(=O)COCCCOCCCOc2cc(F)c([C@@H]3c4[nH]c5ccccc5c4C[C@@H](C)N3CC(C)(C)F)c(F)c2)C(C)(C)C)cc1 [Compound 5] 9
